SYSTEM_UNDER_TEST: T1, recombinant human PD-1-his protein (human, UniProt Q15116 25-167)
T1 construct: also called hPD-1-his; not shown: his tag
TEST_SUMMARY: ELISA; PD-1-his coated 2 µg/mL, anti-human IgG Fc-HRP
Record form. Attribute: EC50. Fill in for each entry.
# output: bare number, implied unit nM

stdin: Query: EC50; subject: MHPD1-A-30 H Fc (Fc fusion, not shown: Fc) QVQLVESGGGLVQPGGSLRLSCATSGVRRSIYAMGWFRQAPGKGLEFVAGIGWAYATQYYADSVKGRFTISRDNTKNTLYLQMNSLRAEDTAVYYCAADIDHSGFDYWGQGTLVTVSS
stdout: 0.166

stdin: Query: EC50; subject: MHPD1-A-49 H Fc (Fc fusion, not shown: a dimerising Fc or GST; small tags and cut ends) VHH: QVQLVESGGGLVQPGGSLRLSCATSGSRRSIYAMGWFRQAPGKGLEFVAGIGWAYATTYYADSVKGRFTISRDNTKNTLYLQMNSLRAEDTAVYYCAADLDRVGFDYWGQGTLVTVSS
stdout: 0.171

stdin: Query: EC50; subject: MHPD1-A-25 H Fc (Fc fusion, not shown: Fc) QVQLVESGGGLVQPGGSLRLSCATSGVRRSIYAMGWFRQAPGKGLEFVAGIGWAYATTYYADSVKGRFTISRDNTKNTLYLQMNSLRAEDTAVYYCAADLDRHGFDYWGQGTLVTVSS
stdout: 0.211

stdin: Query: EC50; subject: MHPD1-A-22 H Fc (Fc fusion, not shown: Fc region) VHH: QVQLVESGGGLVQPGGSLRLSCATSGSRRSIYAMGWFRQAPGKGLEFVAGIGWAYATTYYADSVKGRFTISRDNTKNTLYLQMNSLRAEDTAVYYCAADLDRGGFDYWGQGTLVTVSS
stdout: 0.242
